Hello, the source for this data is patent US12024506B2, in case you need it.

Biological target: GST-human KRas166 (G12V) GPPNHP (Homo sapiens, UniProt P01116, G12V)
Construct: made in house; host or cells: E. coli C41(DE3)
Experiment: KRas small-molecule screening by SPR (Biacore T200)
Type: binding
Settings: compound 100 uM, 5% DMSO buffer; immobilised GST-KRas166 (G12V) GPPNHP
measured_property: SPR Response Units
Quick note: number first, unit second.

GST-human KRas166 (G12V) GPPNHP (Homo sapiens, UniProt P01116, G12V) data for COc1nc(-c2cccc3c2OCCO3)ccc1Nc1ccc(CNCC2CNC(=O)C2)cc1 (centres unmarked) ; its SPR Response Units: 147 Response Units

GST-human KRas166 (G12V) GPPNHP (Homo sapiens, UniProt P01116, G12V) data for CN(C)CCOc1ccc(C(=O)NCC2COc3cccc(-c4ccccn4)c3O2)cc1 (centres unmarked) ; its SPR Response Units: 35 Response Units

GST-human KRas166 (G12V) GPPNHP (Homo sapiens, UniProt P01116, G12V) data for COc1nc(-c2cccc3c2OCCO3)ccc1Nc1cccc(CC(=O)NC2CCNC(=O)C2)c1 (centres unmarked) ; its SPR Response Units: 142 Response Units

GST-human KRas166 (G12V) GPPNHP (Homo sapiens, UniProt P01116, G12V) data for COc1cc(NC(=O)[C@H]2CNCCO2)cc(-c2cccc3c2OCCO3)n1 ; its SPR Response Units: 71 Response Units

GST-human KRas166 (G12V) GPPNHP (Homo sapiens, UniProt P01116, G12V) data for c1cc2c(c(-c3ccc(Nc4ccc(CNCC5COCCN5)cc4)cc3)c1)OCCO2 (centres unmarked) ; its SPR Response Units: 150 Response Units

GST-human KRas166 (G12V) GPPNHP (Homo sapiens, UniProt P01116, G12V) data for COc1nc(-c2cccc3c2O[C@@H](CNC(=O)C2CCOCC2)CO3)ccc1Nc1cccc(CN(C)C)c1 ; its SPR Response Units: 128 Response Units

GST-human KRas166 (G12V) GPPNHP (Homo sapiens, UniProt P01116, G12V) data for CN(C)Cc1cccc(C(=O)N2CCN(c3cccc4c3OCCO4)CC2)c1 ; its SPR Response Units: 5 Response Units

GST-human KRas166 (G12V) GPPNHP (Homo sapiens, UniProt P01116, G12V) data for COc1cccc(-c2cccc3c2O[C@H](CNC(=O)C2CCN(Cc4cnccn4)CC2)CO3)n1 ; its SPR Response Units: 54 Response Units
